Data provenance: patent US8445510B2

- System: MKN45 cells
- assay protocol: MKN45 cell proliferation assay (CellTiter-Glo)
- Format: cell-based
- test context: Homo sapiens, MKN-45, 72 h; MKN45 cell line; 3 days incubation; at least duplicate experiments; read-out: Prolif. IC50
recorded endpoint: IC50

// solved cases for IC50 follow
CCc1nn(CC(C)(C)O)cc1-c1cnc2[nH]cc([C@H](C)c3c(OC)ccc(F)c3Cl)c2c1; 0.05 to 0.2 µM
C[C@H](c1c(OC(F)F)ccc(F)c1Cl)c1c[nH]c2ncc(-c3cnn([C@H]4CC[C@H](O)CC4)c3CO)cc12; ≤ 0.05 µM
Cc1c(-c2cnc3[nH]cc([C@H](C)c4c(OC(F)F)ccc(F)c4Cl)c3c2)cnn1C1CCNCC1; ≤ 0.05 µM
[2H]c1[nH]c2ncc(-c3cnn([C@H]4CC[C@H](O)CC4)c3C)cc2c1[C@@H](C)c1c(OC(F)F)ccc(F)c1Cl; 0.2 to 1 µM
Cc1c(-c2cnc3[nH]cc([C@H](C)c4c(OC(F)F)ccc(F)c4Cl)c3c2)cnn1[C@H]1CC[C@H](N)CC1; ≤ 0.05 µM

Observed IC50, MKN45 cells, `COc1ccc(F)c(Cl)c1[C@@H](CF)c1c[nH]c2ncc(-c3cnn([C@H]4CC[C@H](O)CC4)c3C)cc12` : ≤ 0.05 µM

Observed IC50, MKN45 cells, `C[C@H](c1c(OC(F)F)ccc(F)c1Cl)c1c[nH]c2ncc(-c3cnc([C@H]4CC[C@H](O)CC4)n3C)cc12` : ≤ 0.05 µM

* * *

The reader will find reported pIC50 values listed item by item below.
- Test system: MKN45 cells
- assay protocol: MKN45 cell proliferation assay (CellTiter-Glo)
- Type: cell-based
- test context: Homo sapiens, MKN-45, 72 h; MKN45 cell line; 3 days incubation; at least duplicate experiments; read-out: Prolif. IC50
pIC50: −log10 of the molar value.

COc1ccc(F)c(Cl)c1[C@@H](C)c1c[nH]c2ncc(-c3cnn(C)c3OC)cc12; 6.70 to 7.30

Reported pIC50 ( `Cc1c(-c2cnc3[nH]cc([C@H](C)c4c(OC(F)F)ccc(F)c4Cl)c3c2)cnn1[C@H]1C[C@@H](O)C1` ) = ≥ 7.30

Reported pIC50 ( `COc1ccc(F)c(Cl)c1[C@@H](C)c1c[nH]c2ncc(-c3cnn([C@H]4CC[C@@H](N(C)C)CC4)c3C)cc12` ) = ≥ 7.30

Reported pIC50 ( `CCc1nn(CC(C)(C)O)cc1-c1cnc2[nH]cc([C@H](C)c3c(OC(F)F)ccc(F)c3Cl)c2c1` ) = ≥ 7.30

Reported pIC50 ( `Cc1c(-c2cnc3[nH]cc([C@H](C)c4c(OC(F)F)ccc(F)c4Cl)c3c2)cnn1C[C@H](O)CO` ) = ≥ 7.30

Reported pIC50 ( `COc1ccc(F)c(Cl)c1[C@@H](C)c1c[nH]c2ncc(-c3cnn([C@H]4CC[C@H](O)CC4)c3C(F)(F)F)cc12` ) = 6.70 to 7.30

Reported pIC50 ( `Cc1c(-c2cnc3[nH]cc([C@H](C)c4c(OC(F)F)ccc(F)c4Cl)c3c2)cnn1[C@H]1CC[C@H](C(N)=O)CC1` ) = ≥ 7.30

Reported pIC50 ( `COc1ccc(F)c(Cl)c1[C@@H](C)c1c[nH]c2ncc(-c3c(CO)nn(C)c3C)cc12` ) = 6.70 to 7.30

Reported pIC50 ( `Cc1c(-c2cnc3[nH]cc([C@H](C)c4c(OC(F)F)ccc(F)c4Cl)c3c2)cnn1[C@H]1CC[C@@H](N(C)CC(=O)O)CC1` ) = 6.70 to 7.30

Reported pIC50 ( `COc1ccc(F)c(Cl)c1[C@@H](C)c1c[nH]c2ncc(-c3cnn([C@H]4CC[C@H](N)CC4)c3C)cc12` ) = ≥ 7.30

Reported pIC50 ( `COc1ccc(F)c(Cl)c1[C@@H](C)c1c[nH]c2ncc(-c3cn(C)nc3C(F)(F)F)cc12` ) = < 6.00

* * *

The reader will find reported IC50 values listed item by item below.
- Tested on: MKN45 cells
- assay protocol: MKN45 cell proliferation assay (CellTiter-Glo)
- Assay type: cell-based
- test context: Homo sapiens, MKN-45, 72 h; MKN45 cell line; 3 days incubation; at least duplicate experiments; read-out: Prolif. IC50

Cc1c(-c2cnc3[nH]cc([C@H](C)c4c(OC(F)F)ccc(F)c4Cl)c3c2)cnn1[C@H]1C[C@@](C)(O)C1 [Example 79]; ≤ 50 nM

Reported IC50 ( COc1ccc(F)c(Cl)c1[C@@H](C)c1c[nH]c2ncc(-c3cn(CC(C)(C)O)nc3C)cc12 [Example 7] ) = ≤ 50 nM

Reported IC50 ( CCc1nn([C@H]2CC[C@H](O)CC2)cc1-c1cnc2[nH]cc([C@H](C)c3c(OC(F)F)ccc(F)c3Cl)c2c1 [Example 77] ) = ≤ 50 nM

Reported IC50 ( C[C@H](c1c(OC(F)F)ccc(F)c1Cl)c1c[nH]c2ncc(-c3cnn([C@H]4CC[C@H](O)CC4)c3F)cc12 [Example 84] ) = ≤ 50 nM

Reported IC50 ( Cc1c(-c2cnc3[nH]cc([C@H](C)c4c(OC(F)F)ccc(F)c4Cl)c3c2)cnn1[C@H]1CC[C@H](N(C)CC(=O)O)CC1 [Example 89] ) = ≤ 50 nM

Reported IC50 ( Cc1c(-c2cnc3[nH]cc([C@H](C)c4c(O)ccc(F)c4Cl)c3c2)cnn1[C@H]1CC[C@H](O)CC1 [Example 102] ) = ≤ 50 nM

Reported IC50 ( [2H][C@@](C)(c1c(OC)ccc(F)c1Cl)c1c[nH]c2ncc(-c3cnn([C@H]4CC[C@H](O)CC4)c3C)cc12 [Example 110] ) = ≤ 50 nM

Reported IC50 ( Cc1c(-c2cnc3[nH]cc([C@H](C)c4c(OC(F)F)ccc(F)c4Cl)c3c2)cnn1[C@@H]1C[C@@H](O)[C@@H](O)C1 [Example 75] ) = ≤ 50 nM

Reported IC50 ( COc1ccc(F)c(Cl)c1[C@@H](C)c1c[nH]c2ncc(-c3c(C)nn([C@H]4CC[C@H](O)CC4)c3C)cc12 [Example 6] ) = ≤ 50 nM

Reported IC50 ( COc1ccc(F)c(Cl)c1[C@@H](C)c1c[nH]c2ncc(-c3c(C)nn(C)c3C(N)=O)cc12 [Example 41] ) = > 1000 nM

Reported IC50 ( CCc1c(-c2cnc3[nH]cc([C@H](C)c4c(OC)ccc(F)c4Cl)c3c2)cnn1[C@H]1CC[C@H](O)CC1 [Example 48] ) = ≤ 50 nM

Reported IC50 ( COc1ccc(F)c(Cl)c1[C@@H](C)c1c[nH]c2ncc(-c3cn([C@H]4CC[C@H](C(N)=O)CC4)nc3C)cc12 [Example 19] ) = ≤ 50 nM

Reported IC50 ( Cc1c(-c2cnc3[nH]cc([C@H](C)c4c(OCC(F)(F)F)ccc(F)c4Cl)c3c2)cnn1[C@H]1CC[C@H](O)CC1 [Example 105] ) = ≤ 50 nM

Reported IC50 ( COc1ccc(F)c(Cl)c1[C@@H](C)c1c[nH]c2ncc(-c3cn(C[C@H](O)CO)nc3C(F)(F)F)cc12 [Example 37] ) = 200 to 1000 nM

Reported IC50 ( CCc1c(-c2cnc3[nH]cc([C@H](C)c4c(OC)ccc(F)c4Cl)c3c2)cnn1CC(C)(C)O [Example 11] ) = 50 to 200 nM

Reported IC50 ( [2H]C([2H])([2H])c1c(-c2cnc3[nH]cc([C@H](C)c4c(OC(F)F)ccc(F)c4Cl)c3c2)cnn1[C@H]1CC[C@H](O)CC1 [Example 85] ) = ≤ 50 nM

Reported IC50 ( Cc1c(-c2cnc3[nH]cc([C@H](C)c4c(OC(F)F)ccc(F)c4Cl)c3c2)cnn1[C@H]1CC[C@@H](O)CC1 [Example 86] ) = ≤ 50 nM

* * *

The reader will find reported IC50 values listed item by item below.
- target: RON (Homo sapiens)
- Sequence (Q04912 913-1400): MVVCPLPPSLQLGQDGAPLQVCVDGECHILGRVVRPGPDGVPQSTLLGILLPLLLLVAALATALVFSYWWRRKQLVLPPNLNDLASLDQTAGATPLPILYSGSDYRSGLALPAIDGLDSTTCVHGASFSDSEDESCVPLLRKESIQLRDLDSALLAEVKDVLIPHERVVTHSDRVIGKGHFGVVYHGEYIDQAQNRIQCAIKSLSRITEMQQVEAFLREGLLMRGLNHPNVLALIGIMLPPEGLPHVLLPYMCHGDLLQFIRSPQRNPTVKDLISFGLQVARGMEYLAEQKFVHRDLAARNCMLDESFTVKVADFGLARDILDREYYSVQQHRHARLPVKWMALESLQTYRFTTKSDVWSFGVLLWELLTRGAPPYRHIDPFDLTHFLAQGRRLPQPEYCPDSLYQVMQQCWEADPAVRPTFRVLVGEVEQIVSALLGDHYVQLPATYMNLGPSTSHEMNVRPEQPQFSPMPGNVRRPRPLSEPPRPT
- assay protocol: sfRON cell mechanistic assay (HeLa), phosphorylated RON ELISA
- test context: HeLa cells transfected with sfRON; inhibition of phosphorylated RON; four hours incubation; at least duplicate experiments; read-out: sfRON mech IC50

C[C@H](c1c(OC(F)F)ccc(F)c1Cl)c1c[nH]c2ncc(-c3cnn([C@H]4CC[C@H](O)CC4)c3F)cc12; 200 to 1000 nM

Reported IC50 ( `Cc1nn(C[C@@H](O)CO)c(C)c1-c1cnc2[nH]cc([C@H](C)c3c(OC(F)F)ccc(F)c3Cl)c2c1` ) = ≤ 200 nM

Reported IC50 ( `CCc1c(-c2cnc3[nH]cc([C@H](C)c4c(OC)ccc(F)c4Cl)c3c2)cnn1[C@H]1CC[C@H](O)CC1` ) = > 1000 nM

* * *

The reader will find reported pIC50 values listed item by item below.
- Tested on: MKN45 cells
- assay protocol: MKN45 cell proliferation assay (CellTiter-Glo)
- Assay type: cell-based
- test context: Homo sapiens, MKN-45, 72 h; MKN45 cell line; 3 days incubation; at least duplicate experiments; read-out: Prolif. IC50
pIC50: −log10 of the molar value.

// solved cases for pIC50 follow
COc1ccc(F)c(Cl)c1[C@@H](C)c1c[nH]c2ncc(-c3cnn(C)c3C(N)=O)cc12; 6.00 to 6.70
COc1ccc(F)c(Cl)c1[C@@H](C)c1c[nH]c2ncc(-c3cn(C)nc3CO)cc12; 6.70 to 7.30
Cc1c(-c2cnc3[nH]cc([C@H](CF)c4c(Cl)ccc(F)c4Cl)c3c2)cnn1[C@H]1CC[C@H](O)CC1; 6.70 to 7.30
Cc1nn(C[C@H](O)CO)cc1-c1cnc2[nH]cc([C@H](C)c3c(OC(F)F)ccc(F)c3Cl)c2c1; ≥ 7.30
COc1ccc(F)c(Cl)c1[C@@H](C)c1c[nH]c2ncc(-c3cn([C@H]4CC[C@H](O)CC4)nc3OC)cc12; ≥ 7.30

Reported pIC50 ( `COc1ccc(F)c(Cl)c1[C@@H](C)c1c[nH]c2ncc(-c3cn(C)nc3Cl)cc12` ) = 6.70 to 7.30

Reported pIC50 ( `COc1ccc(F)c(Cl)c1[C@@H](C)c1c[nH]c2ncc(-c3cn(CC(C)(C)O)nc3C(F)(F)F)cc12` ) = 6.00 to 6.70
